- target: CSNK1D (human) (UniProt P48730)
- Sequence (P48730 whole entry, looked up): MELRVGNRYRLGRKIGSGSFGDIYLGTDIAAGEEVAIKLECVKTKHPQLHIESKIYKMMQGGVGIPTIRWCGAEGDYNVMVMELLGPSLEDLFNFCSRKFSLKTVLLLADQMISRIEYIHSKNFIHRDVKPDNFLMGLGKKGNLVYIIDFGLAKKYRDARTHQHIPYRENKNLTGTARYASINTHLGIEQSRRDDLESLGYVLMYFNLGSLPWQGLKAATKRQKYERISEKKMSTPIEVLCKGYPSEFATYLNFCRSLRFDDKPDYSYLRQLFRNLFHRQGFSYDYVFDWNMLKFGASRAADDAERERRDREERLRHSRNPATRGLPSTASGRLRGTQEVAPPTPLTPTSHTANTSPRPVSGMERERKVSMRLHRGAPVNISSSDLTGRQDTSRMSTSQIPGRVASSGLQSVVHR
- assay_explanation: radiometric filter-binding kinase assay
- test_parameters: compound 1.0 µM
measurement_name: residual activity (%)
Provide only the numeric value, understood in %.

INPUT: Field request: residual activity | item: O=C(NCCCNc1nc(Nc2cccc(CN3CCOCC3)c2)ncc1C1CC1)C1CCC1
OUTPUT: 66

INPUT: Endpoint output: residual activity of O=C1Nc2nc(-c3c(O)cccc3OCC3CC3)cc(C3CCCNC3)c2CO1 (stereo not given) . Value?
OUTPUT: 81

INPUT: If you can, please state the reported residual activity value of Oc1ccc(/C=C/c2cc(O)cc(O)c2)cc1 .
OUTPUT: 84

INPUT: Quick check: residual activity of CC1=C(CO)C(=O)O[C@@H]([C@@H](C)[C@H]2CC[C@H]3[C@@H]4C[C@H]5O[C@]56[C@@H](O)C=CC(=O)[C@]6(C)C4CC[C@]23C)C1 (stereo not given in full) ?
OUTPUT: 103

INPUT: What value of measured residual activity is listed for NS(=O)(=O)OC[C@@H]1C[C@@H](n2ccc3c(N[C@H]4CCc5ccccc54)ncnc32)C[C@@H]1O ?
OUTPUT: 86

INPUT: Fill in the blank: the reported residual activity of NC(=O)c1cc(-c2ccnc(NC3CCCCC3)c2)nc(N2CCNCC2)c1 is ____.
OUTPUT: 42

INPUT: # lookup: residual activity of NC1(c2ccc(-c3nc4ccn5c(=O)[nH]nc5c4cc3-c3ccccc3)cc2)CCC1
OUTPUT: 100

INPUT: // returns reported residual activity for input O=C(NOCC(O)CO)c1ccc(F)c(F)c1Nc1ccc(I)cc1Cl (stereo not given)
OUTPUT: 96

INPUT: Give its residual activity value. Item: C=CC(=O)N1CCC[C@@H](n2nc(-c3ccc(Oc4ccccc4)cc3)c3c(N)ncnc32)C1
OUTPUT: 111

INPUT: Need residual activity, item Cn1nc(Nc2ccc(F)cc2)c2c(N)ncnc21
OUTPUT: 97

INPUT: // residual activity lookup, key: O=C(O)c1cc(N=Nc2ccc(S(=O)(=O)Nc3ccccn3)cc2)ccc1O
OUTPUT: 103

INPUT: I'd like to know its residual activity. The compound in question is FC(F)(F)c1ccc(-c2ccc(Oc3cncc4sc(-c5nn[nH]n5)cc34)cc2)cc1
OUTPUT: 86

INPUT: Which measured residual activity value corresponds to NC(=O)c1c(NC(=O)C2CC2)sc2c1CCCC2 ?
OUTPUT: 96

INPUT: Fill blank: measured residual activity of the compound O=C(Nc1nc2cc(C(F)(F)F)cc(NC3CC3)n2n1)c1cccnc1 is ____.
OUTPUT: 59

INPUT: Fill in: residual activity of COc1cc(C(=O)N2CCOCC2)c(F)cc1Nc1ncc(C(F)(F)F)c(NC2CC2)n1 is ___
OUTPUT: 95

INPUT: What value of residual activity has been reported for the following compound? Cc1cccc(Nc2nn(C)c3ncnc(N)c23)c1
OUTPUT: 77

INPUT: Tell me the measured residual activity of O=C(N[C@@H](COc1ccc2[nH]c(=O)[nH]c2c1)c1ccccc1)c1cccn(Cc2ccc(F)c(F)c2)c1=O , please.
OUTPUT: 110

INPUT: Need residual activity, item C=C1C(=O)OC2C1CC/C(C)=C/CCC1(C)OC21 (stereo not given)
OUTPUT: 99

INPUT: Fill in: residual activity of CCn1c(-c2nonc2N)nc2cncc(CNC3CCNCC3)c21 is ___
OUTPUT: 91

INPUT: // query residual activity value for entry CNc1nc(-c2ccc3c(N)n[nH]c3c2)cc(N2C[C@@H](C(=O)NC3CCCCC3)CC[C@H]2C)n1
OUTPUT: 96

INPUT: I have this compound here, NC(=O)c1cc2c(-c3cccc(-c4ccccc4)c3)cnc(N)c2s1 , and I need its recorded residual activity.
OUTPUT: 73

INPUT: Reported residual activity, compound CCNc1nc(Nc2cc(F)c(C(=O)N3CCOCC3)cc2OC)ncc1C(F)(F)F : ____
OUTPUT: 98

INPUT: GET /values?readout=residual activity&item= CCc1cncnc1N1CCN(Cc2nc3cc(C(F)(F)F)ccc3[nH]2)CC1
OUTPUT: 93

INPUT: Name the reported residual activity value associated with the compound NC(=O)Nc1ccc2c(c1)/C(=C/c1cc(-c3cccnc3)c[nH]1)C(=O)N2
OUTPUT: 59

INPUT: Fill blank: measured residual activity of the compound Cn1c(=O)c2c(ncn2C)n(C)c1=O is ____.
OUTPUT: 120

INPUT: # get_value(readout='residual activity', item= COc1cc(O)c2c(c1)/C=C/C[C@H](O)[C@H](O)C(=O)/C=C\C[C@H](C)OC2=O )
OUTPUT: 104

INPUT: For the compound CN(C)C/C=C/C(=O)Nc1cccc(C(=O)Nc2ccc(Nc3nccc(-c4cccnc4)n3)cc2)c1 , what residual activity is on record?
OUTPUT: 33

INPUT: Report residual activity for COc1ccc2c(c1)c1c3c(c4c5ccccc5n(C)c4c1n2CC(O)CN(C)C)C(=O)NC3=O (stereo not given) please.
OUTPUT: 83

INPUT: Fill in: residual activity of NCC(=O)Nc1ccc(-n2nc(C(F)(F)F)cc2-c2ccc3c(ccc4ccccc43)c2)cc1 is ___
OUTPUT: 96

INPUT: Please give the measured residual activity for this compound: NC(=O)c1ccc(-c2ccc(Oc3cncc4sc(-c5nn[nH]n5)cc34)cc2)cc1
OUTPUT: 90

INPUT: For Cc1cc(SCc2sc(-c3ccc(C(F)(F)F)cc3)nc2C)ccc1OCC(=O)O , what is its reported residual activity?
OUTPUT: 82

INPUT: Fill in the blank: the reported residual activity of Nc1cccc2c1CN(C1CCC(=O)NC1=O)C2=O (stereo not given) is ____.
OUTPUT: 102

INPUT: Quick one: residual activity of c1ccc2c(-c3cnn4cc(-c5ccc(N6CCNCC6)cc5)cnc34)ccnc2c1 ?
OUTPUT: 69

INPUT: Any idea what its residual activity is? The compound is Cc1cccc(-c2nn(C(=S)Nc3ccccc3)cc2-c2ccnc3ccccc23)n1
OUTPUT: 46

INPUT: What value of residual activity has been reported for the following compound? Cc1ccc(=O)n(-c2ccccc2)c1
OUTPUT: 97

----------
Exercise: for every item that follows, state its recorded residual activity.
- target: MELK (human) (UniProt Q14680)
- Sequence (Q14680 whole entry, looked up): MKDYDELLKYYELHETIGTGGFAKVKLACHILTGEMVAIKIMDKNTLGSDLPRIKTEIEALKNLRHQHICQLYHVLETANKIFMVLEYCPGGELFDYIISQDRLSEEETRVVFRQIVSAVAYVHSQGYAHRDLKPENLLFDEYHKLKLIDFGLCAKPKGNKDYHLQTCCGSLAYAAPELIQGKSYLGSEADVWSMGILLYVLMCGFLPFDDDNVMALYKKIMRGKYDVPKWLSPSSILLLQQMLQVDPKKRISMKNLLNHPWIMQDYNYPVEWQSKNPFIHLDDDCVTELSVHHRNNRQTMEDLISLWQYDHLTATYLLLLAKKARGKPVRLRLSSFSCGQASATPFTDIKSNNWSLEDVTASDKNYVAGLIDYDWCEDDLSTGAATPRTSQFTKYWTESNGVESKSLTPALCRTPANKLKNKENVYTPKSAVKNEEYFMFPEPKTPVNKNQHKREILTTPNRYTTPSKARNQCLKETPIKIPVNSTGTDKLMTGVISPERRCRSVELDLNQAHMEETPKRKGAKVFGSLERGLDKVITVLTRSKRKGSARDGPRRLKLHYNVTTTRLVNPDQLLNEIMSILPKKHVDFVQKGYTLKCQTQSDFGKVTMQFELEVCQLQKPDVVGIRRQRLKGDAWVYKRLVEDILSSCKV
- assay_explanation: radiometric filter-binding kinase assay
- test_parameters: compound 0.01 µM
Give the value, in units of %, as a plain number.

INPUT: Can you look up the measured residual activity of COc1ccc(N(C(=O)Nc2c(C)cccc2C)c2cc(Nc3ccc(N4CCN(C)CC4)cc3)ncn2)c(OC)c1 for me?
OUTPUT: 105

INPUT: Fill in the blank: the reported residual activity of O=C(Nc1nc2cc(C(F)(F)F)cc(NC3CC3)n2n1)c1cccnc1 is ____.
OUTPUT: 97

INPUT: Any idea what residual activity was measured for CNc1nc(-c2ccc3c(N)n[nH]c3c2)cc(N2C[C@@H](C(=O)NC3CCCCC3)CC[C@H]2C)n1 ?
OUTPUT: 115

INPUT: Sample CNC(=O)C1[C@H]2O[C@@](C)([C@@H]1N)n1c3ccccc3c3c4c(c5c6ccccc6n2c5c31)C(=O)NC4 (stereo partly specified) — what was its residual activity?
OUTPUT: 18

INPUT: Given COc1cc(O)c2c(c1)[C@H]1OC1C[C@H](O)[C@H](O)C(=O)/C=C\C[C@H](C)OC2=O (stereo partly specified) , state its recorded residual activity.
OUTPUT: 92

INPUT: Look at this molecule and give its reported residual activity. C/C(=C1/C(=O)Nc2ccc(NC(N)=O)cc21)c1ccc[nH]1
OUTPUT: 47

----------
Assign residual activity to each entry below.
- target: PHKG1 (human) (UniProt Q16816)
- Sequence (Q16816 whole entry, looked up): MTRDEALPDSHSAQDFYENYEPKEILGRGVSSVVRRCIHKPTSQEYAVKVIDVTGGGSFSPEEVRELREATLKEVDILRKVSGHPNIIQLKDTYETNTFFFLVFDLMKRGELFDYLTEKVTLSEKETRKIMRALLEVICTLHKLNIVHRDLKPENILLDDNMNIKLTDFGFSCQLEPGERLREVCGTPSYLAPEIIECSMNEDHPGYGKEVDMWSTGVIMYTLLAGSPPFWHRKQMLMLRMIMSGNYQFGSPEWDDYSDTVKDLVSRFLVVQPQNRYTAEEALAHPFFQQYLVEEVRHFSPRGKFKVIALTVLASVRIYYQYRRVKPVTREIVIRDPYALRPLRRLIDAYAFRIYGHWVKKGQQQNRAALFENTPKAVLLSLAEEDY
- assay_explanation: radiometric filter-binding kinase assay
- test_parameters: compound 0.1 µM
Give the quantity in %, number only.

INPUT: // lookup residual activity for CCCCCc1ccc(/C=C/[C@H](O)[C@@H](CO)NC)cc1
OUTPUT: 99

INPUT: What residual activity value was documented for this molecule, Cc1cccc(-c2nn(C(=S)Nc3ccccc3)cc2-c2ccnc3ccccc23)n1 ?
OUTPUT: 100

INPUT: What value of measured residual activity is listed for Cc1ccc(Sc2cnc(Nc3cccc(Br)n3)s2)cc1C(=O)N1CCN(C(=O)CN)CC1 ?
OUTPUT: 43

INPUT: Query (molecule): Cc1ccc(-c2ccc3c(ccc4sc5c(c43)NC[C@@H](C)NC5=O)n2)cn1 ; field requested: residual activity
OUTPUT: 110

INPUT: Looking for the measured residual activity of COc1cc(O)c2c(c1)[C@H]1OC1C[C@H](O)[C@H](O)C(=O)/C=C\C[C@H](C)OC2=O (stereo not given in full) , can you help?
OUTPUT: 98

INPUT: Fill in: residual activity of COc1cc(O)c2c(c1)/C=C/C[C@H](O)[C@H](O)C(=O)/C=C\C[C@H](C)OC2=O is ___
OUTPUT: 100

INPUT: Sample COc1ccc(-n2ncc3cnc(Nc4cc(OC)c(OC)c(OCCCN5CCN(C)CC5)c4)nc32)cc1 — what was its residual activity?
OUTPUT: 56

INPUT: # residual activity lookup, item CC1=C(CO)C(=O)O[C@@H]([C@@H](C)[C@H]2CC[C@H]3[C@@H]4C[C@H]5O[C@]56[C@@H](O)C=CC(=O)[C@]6(C)C4CC[C@]23C)C1 (stereo not given in full)
OUTPUT: 110

INPUT: Entry CNC(=O)C1[C@H]2O[C@@](C)([C@@H]1N)n1c3ccccc3c3c4c(c5c6ccccc6n2c5c31)C(=O)NC4 (stereo not given in full) : reported residual activity = ?
OUTPUT: 1

INPUT: Name the reported residual activity value associated with the molecule COc1ccc2c(c1)c1c3c(c4c5ccccc5n(C)c4c1n2CC(O)CN(C)C)C(=O)NC3=O (stereo not given)
OUTPUT: 77

These data points were gathered from the kinase profiling compilation of Christmann-Franck et al. (2016).
